- test_target: UniProt:P27958
- procedure_details: HCV Ki assay (HPLC microbore separation of 5AB substrate and products)
- Assay type: biochemical
- test_settings: 25 nM tNS3, 25 μM KK4A, 25 μM 5AB substrate, 20 min at 30 C; read-out: Ki
*1 amine or outer side, *2 acyl side, *3 side chain or, on linkers, in order; H or OH if unused. Where a SMILES comes first, the peptide text is derived from it. [ ]: non-standard residue; d: D form. The star is where a group is joined. Pro(3S-Et) = CC[C@H]1CCN[C@@H]1C(=O)O; Pyrazinecarbonyl = O=C(c1cnccn1)*; X1 = CCCC(N[*:1])C(=O)C(=O)[*:2]; Chg = N[C@H](C(=O)O)C1CCCCC1; Tle = CC(C)(C)[C@H](N)C(=O)O
property_name: Ki

compound	test_target	Ki
CCC[C@H](NC(=O)[C@@H]1[C@@H](C2CCCCC2)CCN1C(=O)[C@@H](NC(=O)[C@@H](NC(=O)c1cnccn1)C1CCCCC1)C(C)(C)C)C(=O)C(=O)NC1CC1	UniProt:P27958	100 to 500 nM

Entry CCCC(NC(=O)[C@@H]1[C@@H](CC)CCN1C(=O)[C@@H](NC(=O)[C@@H](NC(=O)c1cnccn1)C1CCCCC1)C(C)(C)C)C(=O)C(=O)N[C@@H](C)c1ccccc1 (some centres unmarked) : reported Ki = ?
100 to 500 nM

Fill blank: measured Ki of the compound CCCC(NC(=O)[C@@H]1[C@@H](CC)CCN1C(=O)[C@@H](NC(=O)[C@@H](NC(=O)c1cnccn1)C1CCCCC1)C(C)CC)C(=O)C(=O)N[C@@H](C)c1ccccc1 (some centres unmarked) is ____.
100 to 500 nM

What measured Ki goes with CCCC(NC(=O)[C@@H]1[C@@H](C(=O)OC)CCN1C(=O)[C@@H](NC(=O)[C@@H](NC(=O)c1cnccn1)C(C)C)C(C)C)C(=O)C(=O)N[C@@H](Cc1ccccc1)C(=O)O (some centres unmarked) ?
100 to 500 nM

Looking for the measured Ki of CCCC(NC(=O)[C@@H]1[C@@H](CC)CCN1C(=O)[C@@H](NC(=O)[C@@H](NC(=O)c1cnccn1)C1CCCCC1)C(C)(C)C)C(=O)C(=O)N[C@@H](Cc1ccccc1)C(=O)O (stereo partly drawn) [Compound 41] (Pyrazinecarbonyl-[Chg][Tle][Pro(3S-Et)][X1]F-OH) , can you help?
> 500 nM

---

- test_target: UniProtKB P27958
- procedure_details: HCV Ki assay (HPLC microbore separation of 5AB substrate and products)
- Type: biochemical
property_name: Ki

Item CCCC(NC(=O)[C@@H]1[C@@H](C2CCCCC2)CCN1C(=O)[C@@H](NC(=O)[C@@H](NC(=O)C1CSC(=O)N1)C1CCCCC1)C(C)(C)C)C(=O)C(=O)N[C@@H](C)c1ccccc1 (stereo partly shown) [Compound 63] with UniProtKB P27958 - Ki?
< 100 nM

---

Listed below: Ki values for each entry.
- test_target: HCV NS3-NS4A protease (tNS3 with KK4A) (Hepatitis C virus genotype 1a, UniProt P27958)
- Sequence (P27958 1027-1208): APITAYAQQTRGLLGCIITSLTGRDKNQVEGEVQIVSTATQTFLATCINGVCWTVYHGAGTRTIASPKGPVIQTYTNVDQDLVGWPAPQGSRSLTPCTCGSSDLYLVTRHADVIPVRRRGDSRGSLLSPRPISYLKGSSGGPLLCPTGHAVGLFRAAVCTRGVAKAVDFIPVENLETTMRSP
- procedure_details: HCV Ki assay (HPLC microbore separation of 5AB substrate and products)
- Format: biochemical
- test_settings: 25 nM tNS3, 25 μM KK4A, 25 μM 5AB substrate, 20 min at 30 C; read-out: Ki
*1 amine or outer side, *2 acyl side, *3 side chain or, on linkers, in order; H or OH if unused. Where a SMILES comes first, the peptide text is derived from it. [ ]: non-standard residue; d: D form. The star is where a group is joined. ξ: configuration not given here. Pro(3S-Et) = CC[C@H]1CCN[C@@H]1C(=O)O; Pyrazinecarbonyl = O=C(c1cnccn1)*; X1 = CCCC(N[*:1])C(=O)C(=O)[*:2]; Ile(3ξ) = CCC(C)[C@H](N)C(=O)O; aThr = C[C@H](O)[C@H](N)C(=O)O; Chg = N[C@H](C(=O)O)C1CCCCC1

compound	property_name	measured_value
CCCC(NC(=O)[C@@H]1[C@@H](CC)CCN1C(=O)[C@@H](NC(=O)[C@@H](NC(=O)c1cnccn1)C1CCCCC1)C(C)C)C(=O)C(=O)NC1CC1 (some centres unmarked)	Ki	> 500 nM
CCCC(NC(=O)[C@@H]1[C@@H](CC)CCN1C(=O)[C@@H](NC(=O)[C@@H](NC(=O)c1cnccn1)C(C)C)[C@H](C)OC)C(=O)C(=O)N[C@@H](Cc1ccccc1)C(=O)O (stereo partly drawn) [Compound 33] (Pyrazinecarbonyl-V[aThr](Me)[Pro(3S-Et)][X1]F-OH)	Ki	100 to 500 nM
CCCC(NC(=O)[C@@H]1[C@@H](CC)CCN1C(=O)[C@@H](NC(=O)[C@@H](NC(=O)c1cnccn1)C1CCCCC1)C(C)CC)C(=O)C(=O)N[C@@H](Cc1ccccc1)C(=O)O (stereo partly drawn) [Compound 29] (Pyrazinecarbonyl-[Chg][Ile(3ξ)][Pro(3S-Et)][X1]F-OH)	Ki	< 100 nM
CCC[C@H](NC(=O)[C@@H]1[C@@H](C2CCCCC2)CCN1C(=O)[C@@H](NC(=O)[C@@H](NC(=O)c1cc([N+](=O)[O-])c[nH]1)C1CCCCC1)C(C)(C)C)C(=O)C(=O)NC1CC1	Ki	< 100 nM
CCC[C@H](NC(=O)[C@@H]1[C@@H](C(C)(C)C)CCN1C(=O)[C@@H](NC(=O)[C@@H](NC(=O)c1cnccn1)C1CCCCC1)C(C)(C)C)C(=O)C(=O)NC1CC1	Ki	100 to 500 nM

Report Ki for CCCC(NC(=O)[C@@H]1[C@@H](CC)CCN1C(=O)[C@@H](NC(=O)[C@@H](NC(=O)c1cnccn1)C(C)C)[C@@H](C)OCC)C(=O)C(=O)N[C@@H](Cc1ccccc1)C(=O)O (stereo partly drawn) [Compound 36] (Pyrazinecarbonyl-VT(Et)[Pro(3S-Et)][X1]F-OH) please.
100 to 500 nM

Which Ki value is on record for CCC[C@H](NC(=O)[C@@H]1[C@@H](C(CC)CC)CCN1C(=O)[C@@H](NC(=O)[C@@H](NC(=O)c1cnccn1)C1CCCCC1)C(C)(C)C)C(=O)C(=O)NC1CC1 ?
100 to 500 nM

I would be grateful if you could share the reported Ki for CCC[C@H](NC(=O)[C@@H]1[C@@H](C(C)C)CCN1C(=O)[C@@H](NC(=O)[C@@H](NC(=O)c1ncc[nH]1)C1CCCCC1)C(C)(C)C)C(=O)C(=O)NC1CC1 .
< 100 nM

Look up Ki for this compound: CCCC(NC(=O)[C@@H]1[C@@H](CC)CCN1C(=O)[C@@H](NC(=O)[C@@H](NC(=O)c1cnccn1)C1CCCCC1)C1CCCCC1)C(=O)C(=O)N[C@@H](C)c1ccccc1 (some centres unmarked)
100 to 500 nM

Which Ki value is on record for CCCC(NC(=O)[C@@H]1[C@@H](CC)CCN1C(=O)[C@@H](NC(=O)[C@@H](NC(=O)c1cnccn1)C1CCCCC1)C(C)C)C(=O)C(=O)N[C@@H](C)c1ccccc1 (some centres unmarked) ?
100 to 500 nM

Recorded Ki of CCCC(NC(=O)[C@@H]1[C@@H](CC)CCN1C(=O)[C@@H](NC(=O)[C@H](CC(C)C)NC(=O)c1cnccn1)C(C)C)C(=O)C(=O)N[C@@H](Cc1ccccc1)C(=O)O (stereo partly drawn) [Compound 28] (Pyrazinecarbonyl-LV[Pro(3S-Et)][X1]F-OH) , please.
< 100 nM
